Biological target: FAPα enzyme derived from membrane extracts of the 293-I/2 transfected cells (Homo sapiens)
Construct: made in house; host or cells: human embryonic kidney 293 cells, clone 293-I/2, membrane extract
Sequence (Q12884 1-760): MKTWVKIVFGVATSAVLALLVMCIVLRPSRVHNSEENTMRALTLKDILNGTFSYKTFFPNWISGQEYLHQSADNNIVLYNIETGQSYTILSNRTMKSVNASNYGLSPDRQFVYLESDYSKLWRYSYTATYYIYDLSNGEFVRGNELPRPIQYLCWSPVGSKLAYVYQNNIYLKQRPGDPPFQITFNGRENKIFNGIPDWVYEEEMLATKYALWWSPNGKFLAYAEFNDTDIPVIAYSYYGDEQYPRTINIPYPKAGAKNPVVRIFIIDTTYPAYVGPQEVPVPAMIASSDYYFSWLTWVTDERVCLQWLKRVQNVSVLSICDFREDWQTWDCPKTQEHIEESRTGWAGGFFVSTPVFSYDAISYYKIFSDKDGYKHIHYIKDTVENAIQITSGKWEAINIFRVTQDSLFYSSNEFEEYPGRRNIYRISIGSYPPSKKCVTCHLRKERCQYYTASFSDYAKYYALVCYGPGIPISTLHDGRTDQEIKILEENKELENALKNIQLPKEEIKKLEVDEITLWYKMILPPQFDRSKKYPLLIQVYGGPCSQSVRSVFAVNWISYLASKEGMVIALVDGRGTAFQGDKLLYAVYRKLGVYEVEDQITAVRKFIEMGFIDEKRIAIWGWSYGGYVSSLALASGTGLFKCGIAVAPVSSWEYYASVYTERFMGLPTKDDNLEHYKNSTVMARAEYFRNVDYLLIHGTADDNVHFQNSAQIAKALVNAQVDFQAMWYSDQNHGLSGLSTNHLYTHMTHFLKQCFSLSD
Assay: FAPα-catalyzed cleavage of 4-methoxy-β-napthylamide (MNA)-peptide conjugates, enzyme kinetics
Type: biochemical
Details: release of free MNA, fluorimeter 355 nm/405 nm
property.measured: Km (µM)
State just the number; it will be interpreted in µM.

Example cases with answers are listed next.
[
  {
    "compound": "COc1cc(NC(=O)[C@@H]2CCCN2C(=O)[C@@H](N)CCCCO)cc2ccccc12",
    "target.desc": "FAPα enzyme derived from membrane extracts of the 293-I/2 transfected cells (Homo sapiens)",
    "Km / µM": 69
  },
  {
    "compound": "CC[C@H](C)[C@H](N)C(=O)N1CCC[C@H]1C(=O)Nc1cc(OC)c2ccccc2c1",
    "target.desc": "FAPα enzyme derived from membrane extracts of the 293-I/2 transfected cells (Homo sapiens)",
    "Km / µM": 43
  },
  {
    "compound": "COc1cc(NC(=O)C2CCCN2C(=O)C(N)CCCCN)cc2ccccc12 (stereo not shown)",
    "target.desc": "FAPα enzyme derived from membrane extracts of the 293-I/2 transfected cells (Homo sapiens)",
    "Km / µM": 530
  },
  {
    "compound": "COc1cc(NC(=O)[C@@H]2CCCN2C(=O)[C@@H](N)CO)cc2ccccc12",
    "target.desc": "FAPα enzyme derived from membrane extracts of the 293-I/2 transfected cells (Homo sapiens)",
    "Km / µM": 872
  }
]

Could you now consider this next compound?
Query string: Find the measured Km: item COc1cc(NC(=O)C2CCCN2C(=O)C(C)N)cc2ccccc12 (stereo not shown) , target or system FAPα enzyme derived from membrane extracts of the 293-I/2 transfected cells (Homo sapiens).
Result string: 267
